Protocol Details: Cytotoxicity against human PANC1 cells cultured in nutrient-deprived medium
Type: functional, PANC-1
Binary call on PC50 with cut-off 3 µM: strictly below means met, and equality or higher means not met.

O=C1OCCc2c1n(Cc1cccc(O)c1)c1ccccc21 ... not met
Oc1cc(O)cc(Cn2c3c(c4ccccc42)CCN(Cc2ccccc2)C3=S)c1 ... not met
Oc1ccc(Cn2c3c(c4ccccc42)CCN(Cc2ccccc2)C3=S)cc1 ... met
O=C1c2c(c3ccccc3n2Cc2cccc(O)c2)CCN1Cc1ccccc1 ... not met
COc1cc(O)cc(Cn2c3c(c4ccccc42)CCN(Cc2ccccc2)C3=S)c1 ... not met
Oc1ccc(Cn2c3c(c4ccccc42)CCN(Cc2ccccc2)C3=S)cc1O ... not met
COc1cc(C[C@H]2C(=O)OC[C@@H]2Cc2ccc(OC)c(OC)c2)ccc1O ... met
COc1ccc(Cn2c3c(c4ccccc42)CCN(Cc2ccccc2)C3=S)cc1O ... not met

Exam item: Take the compound Oc1cccc(Cn2ccc3ccccc32)c1 and say whether its PC50 is less than 3 µM.
Marked response: not met

Exam item: Also COc1cc(Cn2c3c(c4ccccc42)CCN(Cc2ccccc2)C3=S)ccc1O ?
Marked response: met

Exam item: Field entry: Oc1ccccc1Cn1c2c(c3ccccc31)CCN(Cc1ccccc1)C2=S
Marked response: met

Exam item: Now give it for Oc1cccc(Cn2c3c(c4ccccc42)CCN(Cc2ccccc2)C3=S)c1 too.
Marked response: met
